Answer each item with its documented pEC50.
# Measurement Target: T1, recombinant rat Aggrecan G1-IGD-G2 (rat, UniProt P07897 20-684, limits assumed)
# T1 construct: also called Rat G1-IGD-G2
# Method: ELISA on recombinant G1-IGD-G2
One number for each entry, as −log10 of the molar value.

Could you report pEC50 for every entry in the following list?
1. C01010118 (ALB26-114F08-114F08) (VHH, not shown: small tags and cut ends, also called C010100118) VHH 1: EVQLVESGGGLVQAGGSLRLSCAASGSTFIINVVRWYRRTPGKQRELVATISSGGNANYVDSVRGRFSISRDGAKNAVDLQMNGLKPEDTAVYYCNVPTTHYGGVYYGPYWGQGTQVTVSS VHH 2: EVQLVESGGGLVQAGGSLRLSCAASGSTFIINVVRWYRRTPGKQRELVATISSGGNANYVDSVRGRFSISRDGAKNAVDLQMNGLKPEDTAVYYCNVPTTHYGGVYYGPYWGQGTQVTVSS
2. C01010054 (114F08-ALB26) (VHH, not shown: small tags and cut ends, also called C010100054) VHH: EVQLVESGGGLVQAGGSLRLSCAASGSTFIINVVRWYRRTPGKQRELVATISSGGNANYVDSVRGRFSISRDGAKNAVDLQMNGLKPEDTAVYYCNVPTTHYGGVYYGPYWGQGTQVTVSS
3. C01010113 (ALB26-606A07-606A07) (VHH, not shown: small tags and cut ends, also called AL326-606A07-606A07) VHH 1: DVQLVESGGGLVQPGGSLRLSCVASGRTFSIYGMGWFRQAPGKEREFVAAINGGSRTYYADSVKGRFTISRDNSKNTVYLQMNSLRPEDTAVYYCAADRSGYGTSLDWWYDYWGQGTLVTVSS VHH 2: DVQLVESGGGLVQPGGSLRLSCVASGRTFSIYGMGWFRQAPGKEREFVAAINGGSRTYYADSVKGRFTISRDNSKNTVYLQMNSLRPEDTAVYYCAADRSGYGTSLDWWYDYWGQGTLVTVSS

Result:
[9.72, 8.12, 9.92]
